# Tested on: P. aeruginosa SR24-12
# Assay Explanation: MIC by agar dilution method, P. aeruginosa SR24-12
# Type: cell-based
# Conditions Used: Pseudomonas aeruginosa, SR2412, AmpC High-Production Cephem Resistant Strain, read-out: MIC (minimum inhibitory concentration) P. aeruginosa SR24-12
Quantity Kind: MIC (µg/mL)

compound="CNCCCn1ccc2c1ccc[n+]2CC1=C(C(=O)[O-])N2C(=O)C(NC(=O)/C(=N\\O[C@H](C)C(=O)O)c3nc(N)sc3Cl)C2SC1 (some centres unmarked)" quantity_kind=MIC experimental_result=4
compound="CNCCCn1ccc2c1ccc[n+]2CC1=C(C(=O)[O-])N2C(=O)C(NC(=O)/C(=N\\OC(C)(C)C(=O)O)c3nc(N)sc3Br)C2SC1 (centres unmarked)" quantity_kind=MIC experimental_result=4
compound="CNCCCn1c(N)nc2c1ccc[n+]2CC1=C(C(=O)[O-])N2C(=O)[C@@H](NC(=O)/C(=N\\O[C@@H](C)C(=O)O)c3nc(N)sc3Cl)C2SC1 (some centres unmarked)" quantity_kind=MIC experimental_result=4
compound="C[C@H](O/N=C(\\C(=O)N[C@@H]1C(=O)N2C(C(=O)[O-])=C(C[n+]3ccc(NC4CCNC4)cc3)CS[C@H]12)c1nc(N)sc1Cl)C(=O)O (some centres unmarked)" quantity_kind=MIC experimental_result=4
compound="CC(C)(O/N=C(\\C(=O)NC1C(=O)N2C(C(=O)[O-])=C(C[n+]3ccccc3)CSC12)c1nc(N)sc1Cl)C(=O)O (centres unmarked)" quantity_kind=MIC experimental_result=8
compound="C[C@H](N)Cn1c(N)nc2c1ccc[n+]2CC1=C(C(=O)[O-])N2C(=O)C(NC(=O)/C(=N\\O[C@@H](C)C(=O)O)c3nc(N)sc3Cl)C2SC1 (some centres unmarked)" quantity_kind=MIC experimental_result=2
compound=CNCCNc1cc[n+](CC2=C(C(=O)[O-])N3C(=O)[C@@H](NC(=O)/C(=N\O[C@@H](C)C(=O)O)c4nc(N)sc4Cl)[C@H]3SC2)cc1 quantity_kind=MIC experimental_result=4
compound="C=C(O/N=C(\\C(=O)NC1C(=O)N2C(C(=O)[O-])=C(C[n+]3cccc4c3ccn4CCCNC)CSC12)c1nc(N)sc1Cl)C(=O)O (centres unmarked)" quantity_kind=MIC experimental_result=8

These entries and their values trace back to patent US7696354B2.
